assay.overview: Oral bioavailability in CD-1 mice
assay.context: male, CD-1, mouse, blood, 50 mg/kg
measured.property: bioavailability

compound="C#Cc1c(F)ccc2cc(O)cc(-c3ncc4c(N5CC6CCC(C5)N6)nc(OCC5(CN6CC7CC7C6)CC5)nc4c3F)c12 (centres unmarked) [drawing 121]" measured_property=bioavailability value_measured=0.47%
compound=C#Cc1c(F)ccc2cc(O)cc(-c3ncc4c(N5CC6CCC(C5)N6)nc(OC[C@]56CCCN5C[C@@H](F)C6)nc4c3F)c12 measured_property=bioavailability value_measured=0.45%

Task: What does the record list as bioavailability for C#Cc1c(F)ccc2cc(O)cc(-c3ncc4c(N5CC6CCC(C5)N6C(=O)C(F)(F)F)nc(OC[C@]56CCCN5C[C@@H](F)C6)nc4c3F)c12 [drawing 118] ?
Output: 15.8%

Task: What does the record list as bioavailability for C#Cc1c(F)ccc2cc(O)cc(-c3ncc4c(N5CC6CCC(C5)N6)nc(OCC5(CN6CCC(F)CC6)CC5)nc4c3F)c12 [drawing 117] ?
Output: 0.82%

Task: What does the record list as bioavailability for C#Cc1c(F)ccc2cc(O)cc(-c3ncc4c(N5CC6CCC(C5)N6C(=O)C(F)(F)F)nc(OCC5(CN6CCC(F)CC6)CC5)nc4c3F)c12 [drawing 116] ?
Output: 12.4%

* * *

assay.overview: in vivo
assay.context: male, CD-1, mouse, po, 50 mg/kg
measured.property: bioavailability (%)
API: value field is a number in %; no unit string.

Task: What does the record list as bioavailability for C#Cc1c(F)ccc2cc(O)cc(-c3ncc4c(N5CC6CCC(C5)N6C(=O)C(F)(F)F)nc(OCC5(CN6CC7CC7C6)CC5)nc4c3F)c12 (stereo not shown) [drawing 120] ?
Output: 17.4

* * *

Reported pIC50 values are given for each entry in this list.
system: KRAS(G12D)-SOS1 (Homo sapiens, UniProt P01116, G12D)
Sequence (P01116 1-188 isoform P01116-2 G12D): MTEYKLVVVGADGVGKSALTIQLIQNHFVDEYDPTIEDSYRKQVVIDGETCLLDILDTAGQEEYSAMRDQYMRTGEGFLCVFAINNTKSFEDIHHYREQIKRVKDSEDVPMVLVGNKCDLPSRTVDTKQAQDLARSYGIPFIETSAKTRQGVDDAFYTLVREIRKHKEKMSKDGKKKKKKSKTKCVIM
assay.overview: KRAS(G12D)/SOS1 HTRF binding assay
assay.context: absence of GTP; 4° C. for 3 hr
pIC50: −log10 of the molar value.

compound="C#Cc1c(F)ccc2cc(O)cc(-c3ncc4c(N5CC6CCC(C5)N6C(=O)C(F)(F)F)nc(OCC5(CN6CCC(F)CC6)CC5)nc4c3F)c12 [drawing 110]" measured_property=pIC50 value_measured="7.00 to 9.00"

Task: What does the record list as pIC50 for C#Cc1c(F)ccc2cc(O)cc(-c3ncc4c(N5CC6CCC(C5)N6)nc(OCC5(CN6CC7CC7C6)CC5)nc4c3F)c12 (centres unmarked) [drawing 115] ?
Output: 7.00 to 9.00
